List of IC50 values.
Test system: MCF7
Method Description: Cytotoxicity against human MCF7 cells assessed as reduction in cell viability after 48 hrs by CCK8 assay
Assay type: functional, cell-based
Condition Context: MCF7, 48 h

Use these answered entries as a reference point.
COc1ccc(C2=CNc3c(OC)c(OC)cc4ccnc2c34)cc1 > 20 µM
COc1c(OC)c2c3c(nccc3c1-c1cccc(C(F)(F)F)c1)C(c1cccc(C(F)(F)F)c1)=CN2 > 20 µM
COc1c(OC)c2c3c(nccc3c1-c1ccc(F)cc1)C(c1ccc(F)cc1)=CN2 > 20 µM
COc1c(OC)c2c3c(nccc3c1-c1ccccc1)C=CN2 > 20 µM
COc1c(OC)c2c3c(nccc3c1-c1cccc3ccccc13)C=CN2 > 20 µM

For the record COc1cc2ccnc3c2c(c1OC)NC=C3c1cccc(C(F)(F)F)c1 , what value of IC50 is listed for MCF7?
17 µM

Can you handle COc1c(OC)c2c3c(nccc3c1-c1ccc(Cl)cc1)C(c1ccc(Cl)cc1)=CN2 next?
> 20 µM

Can you handle COc1c(OC)c2c3c(nccc3c1-c1ccc(C(F)(F)F)cc1)C(c1ccc(C(F)(F)F)cc1)=CN2 next?
> 20 µM

Can you handle COc1c(OC)c2c3c(nccc3c1-c1ccccc1)C(c1ccccc1)=CN2 next?
19 µM

Can you handle COc1c(OC)c2c3c(nccc3c1-c1cc(C)cc(C)c1)C(c1cc(C)cc(C)c1)=CN2 next?
8.3 µM
